molecular target: Toll-like receptor 7 (Homo sapiens); assay: Antagonist activity at TLR7 in human PBMC assessed as inhibition of gardiquimod-induced TNF-alpha release after 12 hrs by bead array assay; assay type: functional
Sequence (Q9NYK1 whole entry): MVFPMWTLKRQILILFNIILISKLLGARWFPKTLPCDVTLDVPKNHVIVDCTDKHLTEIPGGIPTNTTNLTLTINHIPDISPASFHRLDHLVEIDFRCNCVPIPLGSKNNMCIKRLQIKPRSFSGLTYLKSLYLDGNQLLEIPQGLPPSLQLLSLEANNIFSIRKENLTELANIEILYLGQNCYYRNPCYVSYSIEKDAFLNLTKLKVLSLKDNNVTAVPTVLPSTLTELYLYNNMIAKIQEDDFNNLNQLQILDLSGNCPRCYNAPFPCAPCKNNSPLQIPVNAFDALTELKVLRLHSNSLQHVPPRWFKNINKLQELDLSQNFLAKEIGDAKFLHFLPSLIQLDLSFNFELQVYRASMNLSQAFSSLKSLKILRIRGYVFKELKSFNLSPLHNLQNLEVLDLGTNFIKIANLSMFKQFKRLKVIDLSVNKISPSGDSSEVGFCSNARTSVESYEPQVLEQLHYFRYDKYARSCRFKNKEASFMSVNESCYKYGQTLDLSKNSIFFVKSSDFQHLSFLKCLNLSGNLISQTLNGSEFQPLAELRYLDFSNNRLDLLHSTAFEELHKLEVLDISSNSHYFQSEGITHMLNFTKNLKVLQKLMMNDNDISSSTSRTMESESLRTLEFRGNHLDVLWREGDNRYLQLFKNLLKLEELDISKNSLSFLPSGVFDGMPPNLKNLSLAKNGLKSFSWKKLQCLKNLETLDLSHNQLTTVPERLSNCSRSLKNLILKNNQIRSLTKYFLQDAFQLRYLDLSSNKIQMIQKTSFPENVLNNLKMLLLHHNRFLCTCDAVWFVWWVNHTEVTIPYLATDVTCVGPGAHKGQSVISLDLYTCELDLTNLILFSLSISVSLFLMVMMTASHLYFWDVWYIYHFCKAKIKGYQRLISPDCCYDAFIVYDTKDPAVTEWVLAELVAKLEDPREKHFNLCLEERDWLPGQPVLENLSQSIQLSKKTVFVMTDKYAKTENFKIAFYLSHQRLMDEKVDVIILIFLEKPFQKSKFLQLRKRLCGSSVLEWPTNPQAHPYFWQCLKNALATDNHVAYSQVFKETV
Result Type: IC50 (nM)
Just the number please, in nM, no unit attached.

Item "Nc1nc2ccccc2c2c1nc(CCCc1nc3c(N)nc4ccccc4c3n1Cc1ccccc1)n2Cc1ccccc1" with Toll-like receptor 7 (Homo sapiens) - IC50?
50

----------
target: Toll-like receptor 8 (Homo sapiens, UniProt Q9NR97); experiment: Antagonist activity at TLR8 in human PBMC assessed as inhibition of CL075-induced CCL2 release after 12 hrs by bead array assay; format: functional
Sequence (Q9NR97 whole entry): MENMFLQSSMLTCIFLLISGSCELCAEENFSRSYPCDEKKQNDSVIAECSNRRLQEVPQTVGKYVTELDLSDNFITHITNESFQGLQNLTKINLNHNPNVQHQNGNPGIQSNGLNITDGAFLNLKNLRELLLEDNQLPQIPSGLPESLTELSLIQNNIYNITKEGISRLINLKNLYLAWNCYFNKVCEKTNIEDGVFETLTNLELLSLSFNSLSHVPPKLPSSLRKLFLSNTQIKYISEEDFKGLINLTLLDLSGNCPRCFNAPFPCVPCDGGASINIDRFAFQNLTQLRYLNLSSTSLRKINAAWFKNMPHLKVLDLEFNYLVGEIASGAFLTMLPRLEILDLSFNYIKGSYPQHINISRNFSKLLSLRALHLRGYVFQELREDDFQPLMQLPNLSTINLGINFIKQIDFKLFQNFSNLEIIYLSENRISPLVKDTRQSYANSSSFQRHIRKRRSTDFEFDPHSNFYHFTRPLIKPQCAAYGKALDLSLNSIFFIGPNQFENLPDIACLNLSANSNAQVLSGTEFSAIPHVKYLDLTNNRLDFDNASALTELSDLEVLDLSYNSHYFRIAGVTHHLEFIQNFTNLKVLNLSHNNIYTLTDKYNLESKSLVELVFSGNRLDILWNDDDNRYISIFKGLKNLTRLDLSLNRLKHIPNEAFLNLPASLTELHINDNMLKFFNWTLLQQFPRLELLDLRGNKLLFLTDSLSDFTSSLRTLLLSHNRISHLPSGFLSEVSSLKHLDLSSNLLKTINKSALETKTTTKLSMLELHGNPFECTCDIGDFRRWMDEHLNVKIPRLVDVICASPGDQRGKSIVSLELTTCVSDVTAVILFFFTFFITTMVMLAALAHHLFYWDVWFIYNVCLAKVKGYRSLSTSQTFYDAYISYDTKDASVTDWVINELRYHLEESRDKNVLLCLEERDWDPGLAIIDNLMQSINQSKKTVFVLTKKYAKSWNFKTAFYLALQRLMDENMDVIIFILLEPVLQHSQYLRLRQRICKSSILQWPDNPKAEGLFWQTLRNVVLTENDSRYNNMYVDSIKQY
Result Type: IC50 (nM)
Just the number please, in nM, no unit attached.

// IC50 lookup, key: "Nc1nc2ccccc2c2c1nc(CCCc1nc3c(N)nc4ccccc4c3n1Cc1ccccc1)n2Cc1ccccc1"
50
